# measurement.target: recombinant human DPPIV (rhDPPIV) (Homo sapiens)
# Construct: purchased R&S system (so in the source)
# assay.name: DPPIV enzymatic activity assay, H-Gly-Pro-pNA
# Format: biochemical
# assay.setup: Table 3A
pIC50: −log10 of the molar value.
Recorded pIC50 for the following compounds

For orientation, consider the following solved cases.
# compound, result
data = [
    ("CC(Nc1cnccc1C(=O)NCC(=O)N1CC(F)(F)C[C@H]1C#N)c1ccc(F)cc1 (some centres unmarked) [Compound 4]", "5.00 to 6.00"),
    ("C/C(=C\\c1cnccc1C(=O)NCC(=O)N1CC(F)(F)C[C@H]1C#N)c1ccc(F)cc1 [Compound 13]", "< 5.00"),
    ("N#C[C@@H]1CC(F)(F)CN1C(=O)CNC(=O)c1ccncc1CCc1ccc(Cl)cc1 [Compound 10]", "5.00 to 6.00"),
    ("N#C[C@@H]1CC(F)(F)CN1C(=O)CNC(=O)c1ccncc1/C=C/c1ccc(F)cc1 [Compound 12]", "5.00 to 6.00"),
    ("N#C[C@@H]1CC(F)(F)CN1C(=O)CNC(=O)c1ccncc1Cc1ccc(F)cc1 [Compound 8]", "< 5.00"),
]

State the measured pIC50 (recombinant human DPPIV (rhDPPIV) (Homo sapiens)) of N#C[C@@H]1CC(F)(F)CN1C(=O)CNC(=O)c1ccncc1Cc1ccccc1F [Compound 7]
< 5.00

State the measured pIC50 (recombinant human DPPIV (rhDPPIV) (Homo sapiens)) of N#C[C@@H]1CC(F)(F)CN1C(=O)CNC(=O)c1ccncc1NCc1ccc(F)cc1 [Compound 2]
< 5.00

State the measured pIC50 (recombinant human DPPIV (rhDPPIV) (Homo sapiens)) of C=C(Cc1cnccc1C(=O)NCC(=O)N1CC(F)(F)C[C@H]1C#N)c1ccc(F)cc1 [Compound 14]
< 5.00

###

Recorded pIC50 for the following compounds
# measurement.target: circulating FAPα (Mesocricetus auratus, UniProt A0ABM2XF29)
# Sequence (A0ABM2XF29 24-761 limits assumed): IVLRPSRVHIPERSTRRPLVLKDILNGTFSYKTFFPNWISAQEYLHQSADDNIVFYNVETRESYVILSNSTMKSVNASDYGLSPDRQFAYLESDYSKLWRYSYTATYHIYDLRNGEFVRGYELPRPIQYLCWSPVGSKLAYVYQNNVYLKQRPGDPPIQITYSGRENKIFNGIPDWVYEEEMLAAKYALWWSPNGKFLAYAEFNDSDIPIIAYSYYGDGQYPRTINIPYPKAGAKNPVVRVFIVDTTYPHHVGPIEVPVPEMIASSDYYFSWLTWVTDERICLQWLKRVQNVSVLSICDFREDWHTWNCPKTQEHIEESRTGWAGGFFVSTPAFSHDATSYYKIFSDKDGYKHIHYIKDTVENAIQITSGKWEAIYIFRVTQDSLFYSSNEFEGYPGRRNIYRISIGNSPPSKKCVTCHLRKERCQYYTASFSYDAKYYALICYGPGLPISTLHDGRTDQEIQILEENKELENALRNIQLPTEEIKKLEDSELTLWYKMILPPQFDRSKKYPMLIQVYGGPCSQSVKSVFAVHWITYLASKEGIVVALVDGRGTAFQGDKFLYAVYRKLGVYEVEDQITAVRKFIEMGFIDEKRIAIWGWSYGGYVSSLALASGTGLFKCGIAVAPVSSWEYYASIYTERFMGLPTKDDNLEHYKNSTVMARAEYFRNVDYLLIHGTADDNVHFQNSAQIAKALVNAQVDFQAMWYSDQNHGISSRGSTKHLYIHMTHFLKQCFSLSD
# assay.name: Ex vivo inhibition of circulating FAPα activity from hamster plasma (PRXS-AMC)
# Protocol: Male Golden Syrian hamsters were provided by National Laboratory Animal Center (NLAC) in Taiwan. The animals were maintained in a hygienic environment under controlled temperature (20-24° C.) and humidity (50%-80%) with 12 hours light/dark cycles. Free access to standard lab diet [MFG (Oriental Yeast Co., Ltd. Japan)] and autoclaved tap water were granted. […] AMC release was detected measuring fluorescence at an excitation/emission wavelength of 380/460 nm using a Multifunction Microplate Reader. […]
pIC50: −log10 of the molar value.

# smiles.entry, result
records = [
    ("N#C[C@@H]1CC(F)(F)CN1C(=O)CNC(=O)c1ccncc1/C=C/c1ccc(Cl)cc1", "> 6.00"),
]

Quick one: give measured pIC50 for `COc1ccc(C(=O)Nc2cnccc2C(=O)NCC(=O)N2CC(F)(F)C[C@H]2C#N)cc1`
> 6.00

###

Recorded IC50 for the following molecules
# measurement.target: recombinant human DPPIV (rhDPPIV) (Homo sapiens, UniProt P27487)
# Construct: purchased R&S system (so in the source)
# Sequence (P27487 whole entry): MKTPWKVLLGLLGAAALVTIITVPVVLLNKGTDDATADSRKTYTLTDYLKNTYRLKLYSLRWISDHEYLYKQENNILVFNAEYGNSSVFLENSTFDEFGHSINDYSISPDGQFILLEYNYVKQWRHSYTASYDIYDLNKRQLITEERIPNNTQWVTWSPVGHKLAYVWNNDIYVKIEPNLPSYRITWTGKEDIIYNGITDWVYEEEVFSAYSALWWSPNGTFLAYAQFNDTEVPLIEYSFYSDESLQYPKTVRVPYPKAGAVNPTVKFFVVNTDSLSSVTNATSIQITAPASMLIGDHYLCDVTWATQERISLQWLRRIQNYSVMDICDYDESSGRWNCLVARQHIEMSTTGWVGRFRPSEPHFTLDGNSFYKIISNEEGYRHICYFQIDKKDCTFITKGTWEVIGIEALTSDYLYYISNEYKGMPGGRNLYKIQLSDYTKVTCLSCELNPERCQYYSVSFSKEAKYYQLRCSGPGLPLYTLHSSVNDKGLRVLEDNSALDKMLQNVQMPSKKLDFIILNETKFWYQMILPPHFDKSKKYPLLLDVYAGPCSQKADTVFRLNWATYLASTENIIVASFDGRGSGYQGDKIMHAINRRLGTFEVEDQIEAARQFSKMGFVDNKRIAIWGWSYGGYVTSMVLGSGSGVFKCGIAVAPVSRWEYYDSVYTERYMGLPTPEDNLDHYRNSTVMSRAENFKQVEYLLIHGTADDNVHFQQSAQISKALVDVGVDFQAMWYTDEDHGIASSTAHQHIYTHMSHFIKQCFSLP
# assay.name: DPPIV enzymatic activity assay, H-Gly-Pro-pNA
# Format: biochemical
# assay.setup: Table 3B

For orientation, consider the following solved cases.
# molecule, IC50
measured = [
    ("N#C[C@@H]1CC(F)(F)CN1C(=O)CNC(=O)c1ccncc1C#Cc1ccc(Cl)cc1 [Compound 37]", "> 10 µM"),
    ("N#C[C@@H]1CC(F)(F)CN1C(=O)CNC(=O)c1ccnc2ccc(/C=C/c3ccc(C(F)(F)F)nc3)cc12 [Compound 46]", "> 10 µM"),
    ("COc1ccc(C#Cc2ccc3nccc(C(=O)NCC(=O)N4CC(F)(F)C[C@H]4C#N)c3c2)cc1 [Compound 41]", "> 10 µM"),
    ("Cc1cc(/C=C/c2ccc3nccc(C(=O)NCC(=O)N4CC(F)(F)C[C@H]4C#N)c3c2)ccn1 [Compound 192]", "1 to 10 µM"),
]

Quick one: give measured IC50 for N#C[C@@H]1CC(F)(F)CN1C(=O)CNC(=O)c1ccncc1NC(=O)Cc1ccccc1 [Compound 1]
> 10 µM

Quick one: give measured IC50 for COc1ccc(C(=O)Nc2cnccc2C(=O)NCC(=O)N2CC(F)(F)C[C@H]2C#N)cc1 [Compound 3]
1 to 10 µM

Quick one: give measured IC50 for COc1ccc(/C=C/c2ccc3nccc(C(=O)NCC(=O)N4CC(F)(F)C[C@H]4C#N)c3c2)cn1 [Compound 43]
> 10 µM
